Value source: ChEMBL document CHEMBL1128235

target: Human immunodeficiency virus type 1 protease (Human immunodeficiency virus 1, UniProt Q72874); test: Binding affinity for HIV-1 protease was determined in vitro
assay endpoint: Ki
Please append the unit to your numeric answer.

# chemical smiles, value measured
records = [
    ("CC(C)CN(C[C@@H](O)[C@H](Cc1ccccc1)NC(=O)OCc1ccccc1)S(=O)(=O)c1ccccc1", "3.2 nM"),
]

Continue with the compound presented below.
Exercise: Read the entry `CC(C)CCN(C[C@@H](O)[C@H](Cc1ccccc1)NC(=O)[C@H](CC(N)=O)NC(=O)c1ccc2ccccc2n1)S(C)(=O)=O` and write its reported Ki.
Solution: 13 nM

----------
biological target: UniProt Q72874; test: Ability to inhibit HIV-1 protease was determined using spectrofluorimetric assay
pIC50: −log10 of the molar value.
Decision: pIC50 compared against 7; not below it gives yes, below it gives no.

// below: answered compounds
# chemical smiles, experimental target, assigned class
rows = [
    ("O=C(N[C@@H](Cc1ccccc1)[C@H](O)CN(Cc1ccccc1)S(=O)(=O)c1ccccc1)OCc1ccccc1", "UniProt Q72874", "no"),
    ("CC(C)CCN(C[C@@H](O)[C@H](Cc1ccccc1)NC(=O)OCc1ccccc1)S(C)(=O)=O", "UniProt Q72874", "no"),
    ("CC(C)CCN(C[C@@H](O)[C@H](Cc1ccccc1)NC(=O)[C@H](CC(N)=O)NC(=O)OCc1ccccn1)S(=O)(=O)c1ccccc1", "UniProt Q72874", "yes"),
]

Exercise: Please check the record `O=C(N[C@@H](Cc1ccccc1)[C@H](O)CN(CC1CCCCC1)S(=O)(=O)c1ccccc1)OCc1ccccc1` and state if its pIC50 is at or above 7.
Solution: yes

----------
system: CCRF-CEM; assay: Antiviral activity against HIVIIIB strain of HIV-1 was determined in an CEM based assay; type: functional, cell-based; settings: Homo sapiens
assay endpoint: pEC50
By convention, pEC50 is the negative base-10 log of a molar concentration.

# chemical smiles, value measured
data = [
    ("CC(C)CN(C[C@@H](O)[C@H](Cc1ccccc1)NC(=O)OCc1ccccc1)S(=O)(=O)c1ccccc1", 6.95),
]

Exercise: State, for CCRF-CEM, measured pEC50 of the molecule listed here: `CC(C)CCN(C[C@@H](O)[C@H](Cc1ccccc1)NC(=O)[C@H](CC(N)=O)NC(=O)c1ccc2ccccc2n1)S(C)(=O)=O`
Solution: 7.28

Exercise: State, for CCRF-CEM, measured pEC50 of the molecule listed here: `CC(C)CCN(C[C@@H](O)[C@H](Cc1ccccc1)NC(=O)[C@H](CC(N)=O)NC(=O)c1ccc2ccccc2n1)S(=O)(=O)c1ccccc1`
Solution: 8.30

----------
target: Human immunodeficiency virus type 1 protease (Human immunodeficiency virus 1); assay: Binding affinity for HIV-1 protease was determined.
assay endpoint: pKi
By convention, pKi is the negative base-10 log of a molar concentration.

# chemical smiles, pKi
records = [
    ("CC(C)CCN(C[C@@H](O)[C@H](Cc1ccccc1)NC(=O)OCc1ccccc1)S(=O)(=O)c1ccc(Cl)cc1", 8.39),
    ("CC(C)CCN(C[C@H](O)[C@H](Cc1ccccc1)NC(=O)OCc1ccccc1)S(=O)(=O)c1ccccc1", 6.53),
    ("CC(C)CCN(C[C@@H](O)[C@H](Cc1ccccc1)NC(=O)OCc1ccccc1)S(=O)(=O)c1cccc(Cl)c1", 7.21),
]

Exercise: Read the entry `CC(C)CCN(C[C@@H](O)[C@H](Cc1ccccc1)NC(=O)OCc1ccccc1)S(=O)(=O)c1ccccc1Cl` and write its reported pKi.
Solution: 6.64

Exercise: Read the entry `CCCS(=O)(=O)N(CCC(C)C)C[C@@H](O)[C@H](Cc1ccccc1)NC(=O)OCc1ccccc1` and write its reported pKi.
Solution: 6.89

----------
biological target: Human immunodeficiency virus type 1 protease (Human immunodeficiency virus 1); assay: Ability to inhibit HIV-1 protease was determined using spectrofluorimetric assay.
Items are presented alongside their recorded pIC50.
By convention, pIC50 is the negative base-10 log of a molar concentration.

Answered cases to consult:
# chemical smiles, experimental target, pIC50
records = [
    ("CC(C)CCN(C[C@@H](O)[C@H](Cc1ccccc1)NC(=O)OCc1ccccc1)S(=O)(=O)c1cccc(Cl)c1", "Human immunodeficiency virus type 1 protease (Human immunodeficiency virus 1)", 7.04),
    ("CC(C)CCN(C[C@@H](O)[C@H](Cc1ccccc1)NC(=O)OCc1ccccc1)S(=O)(=O)c1ccc(Cl)cc1", "Human immunodeficiency virus type 1 protease (Human immunodeficiency virus 1)", 8.00),
    ("CC(C)CCN(C[C@H](O)[C@H](Cc1ccccc1)NC(=O)OCc1ccccc1)S(=O)(=O)c1ccccc1", "Human immunodeficiency virus type 1 protease (Human immunodeficiency virus 1)", 6.35),
    ("CCCS(=O)(=O)N(CCC(C)C)C[C@@H](O)[C@H](Cc1ccccc1)NC(=O)OCc1ccccc1", "Human immunodeficiency virus type 1 protease (Human immunodeficiency virus 1)", 6.68),
    ("CC(C)CCN(C[C@@H](O)[C@H](Cc1ccccc1)NC(=O)OCc1ccccc1)S(=O)(=O)Cc1ccccc1", "Human immunodeficiency virus type 1 protease (Human immunodeficiency virus 1)", 5.00),
]

Continue with the compound presented below.
Exercise: Read the entry `CC(C)CCN(C[C@@H](O)[C@H](Cc1ccccc1)NC(=O)OCc1ccccc1)S(=O)(=O)c1ccccc1Cl` and write its reported pIC50.
Solution: 6.42
